Biological target: MBP-Ltl1 (Tetrahymena thermophila)
Sequence: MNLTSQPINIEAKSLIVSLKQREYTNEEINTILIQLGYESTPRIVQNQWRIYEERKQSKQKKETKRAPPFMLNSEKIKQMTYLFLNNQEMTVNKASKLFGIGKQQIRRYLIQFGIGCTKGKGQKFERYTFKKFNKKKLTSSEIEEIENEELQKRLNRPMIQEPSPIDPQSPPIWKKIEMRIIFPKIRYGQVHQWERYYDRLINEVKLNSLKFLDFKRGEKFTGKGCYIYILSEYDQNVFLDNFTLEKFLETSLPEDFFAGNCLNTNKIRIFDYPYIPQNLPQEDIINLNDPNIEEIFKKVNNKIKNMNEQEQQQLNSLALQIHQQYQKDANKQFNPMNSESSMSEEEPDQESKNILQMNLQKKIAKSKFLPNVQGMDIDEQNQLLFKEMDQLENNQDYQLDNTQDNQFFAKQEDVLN
Experiment: EMSA
Conditions: EMSA as in Carle et al. (ref 20), binding buffer and temperature not given; probes annealed in 10 mM Tris pH 7.5, 5% glycerol, 100 mM KCl; protein dialyzed in …
experimental endpoint: Kd (µM)
# number only, unit µM dropped from output

>>> value("GAAATTAATATAATTATAATTTTAAACAGTGTAAAACCCAAAAAGCTA (double strand) [R IES left flank -40/-88 ds (R_IES_EMSA_probe2)]")
0.35

(Q) # query: Kd of entry TTATTTGATTAATTAATTTTATTTACGGTAAAGGTTTATATATTAAGGCCACAATATAC (double strand) [D IES left flank -30/-88 ds (IESD_EMSA_probe1)]
(A) 0.35
